# Tested on: 786-0 renal
# test: NCI tumour cell line growth inhibition, 48 h
observable: TGI (µM)
Give just the number in µM; leave the unit off.

Ask: Reported TGI, compound `N#Cc1nc(Sc2cnsn2)c(Sc2cnsn2)nc1C#N` : ____
Reply: 33.6

Ask: Similarly, `NC(=O)c1ccc2nc(-c3ccc(C4(N)CCC4)cc3)c(-c3ccccc3)n2n1` ?
Reply: 12.2

====

# System: LXFL 529 NSCLC
# test: NCI tumour cell line growth inhibition, 48 h
observable: TGI

Ask: Reported TGI, compound `O=C(N[C@@H]1C=CCC[C@@H]1c1ccccc1)OCc1ccccc1` : ____
Reply: 49.8 µM

Ask: Similarly, `Cc1cccc(Cl)c1NC(N)=S` ?
Reply: > 100 µM

Ask: Similarly, COc1cc(C(C#N)NNC(=O)Cc2ccccc2)cc(OC)c1OC (stereo unspecified) ?
Reply: > 100 µM

Ask: Similarly, C=C(C)C1CC2=C(O1)C(=O)c1ccccc1C2=O (stereo unspecified) ?
Reply: 31.4 µM

Ask: Similarly, `Cc1ccc(/C=N/NS(=O)(=O)c2ccccc2)cc1` ?
Reply: > 100 µM

Ask: Similarly, `O=C(c1ccco1)c1ccccc1C(=O)c1ccco1` ?
Reply: > 100 µM

Ask: Similarly, NC1=NN(c2ccccc2)C(=O)C1/C(=N\NC(=O)c1cc2ccccc2cc1O)C(=O)Nc1nc([N+](=O)[O-])cs1 (stereo unspecified) ?
Reply: > 100 µM

Ask: Similarly, `COc1cc[c]([Sb]([Br])([CH]=C(C)C)([CH]=C(C)C)[CH]=C(C)C)cc1` ?
Reply: 39.3 µM

Ask: Similarly, `O=S(=O)(O)c1cc(N=Nc2cc(S(=O)(=O)O)c3ccccc3c2O)ccc1/C=C/c1ccc(N=Nc2cc(S(=O)(=O)O)c3ccccc3c2O)cc1S(=O)(=O)O` ?
Reply: > 1000 µM

Ask: Similarly, Clc1ccccc1C1N2CCCCC2[C@@H]2c3[nH]c4ccccc4c3CCN12 (stereo partly specified) ?
Reply: > 100 µM

Ask: Similarly, Nc1ccc(C(=O)NN2C(=O)C(Cl)C2c2cc(Br)cc(Br)c2O)cc1 (stereo unspecified) ?
Reply: > 100 µM

Ask: Similarly, `Cc1cc2c(=O)cc(-c3ccc(C(F)(F)F)cc3)oc2c(C(=O)O)c1C` ?
Reply: > 100 µM

Ask: Similarly, `CN1CCC(C(=O)NNc2ccccc2)CC1` ?
Reply: 5.69 µM

Ask: Similarly, `CC(C)[C@H]1CO[C@@H]2O[C@H](C)CC(=O)N21` ?
Reply: > 100 µM

Ask: Similarly, `C/C1=N\NC(=O)c2ccccc2C(=O)N/N=C(\C)c2cccc1n2.O=[N+]([O-])[O-].[Zn+2]` ?
Reply: > 100 µM

Ask: Similarly, `O=C(CSc1nnc(Cc2ccccc2)o1)Nc1ccccc1Cl` ?
Reply: > 100 µM

====

# Tested on: NCI-H226 lung
# test: NCI tumour cell line growth inhibition, 48 h
observable: TGI

Ask: Reported TGI, compound CC(NC1=NCCO1)c1cccs1 (stereo not drawn) : ____
Reply: > 100 µM

Ask: Similarly, `COc1cc2cn3c4ccc(O)cc4nc(N)c3c2cc1OC` ?
Reply: 3.54 µM

Ask: Similarly, CSC1=C(C#N)C(=O)N(c2ccc(Cl)cc2)C(=O)C1C#N (stereo not drawn) ?
Reply: > 100 µM

Ask: Similarly, `CC(=O)Nc1ccc(-c2nc3ccccc3s2)cc1Cl` ?
Reply: > 100 µM

Ask: Similarly, `CCOC(=O)/C(=C\c1ccnc2ccccc12)P(=O)(OCC)OCC` ?
Reply: 31.3 µM

Ask: Similarly, `Cc1nc2nn(Cc3ccccc3)cc2c(=O)o1` ?
Reply: > 100 µM

Ask: Similarly, O=C1OCC2=C1C(c1cccc(C(F)(F)F)c1)c1cc3c(cc1N2CCO)OCO3 (stereo not drawn) ?
Reply: > 50 µM

Ask: Similarly, `CC(C)(C)OC(=O)N1CC(Cn2cc(C(F)(F)F)c3c(Cl)ncnc32)C1` ?
Reply: 41.9 µM

Ask: Similarly, `O=c1c2[nH]c3ccccc3c2nc2n1CCS2` ?
Reply: > 100 µM

Ask: Similarly, `OC1CSCCCSCCSCCCSC1` ?
Reply: > 100 µM

Ask: Similarly, `Cc1ccc(/C=N/NS(=O)(=O)c2ccccc2)cc1` ?
Reply: > 100 µM

Ask: Similarly, `c1cc2[nH]snc2c2cncc12` ?
Reply: > 100 µM

Ask: Similarly, `CCN(CC)C(=S)SC(=S)N(CC)CC` ?
Reply: > 100 µM

====

# System: RXF-631 renal
# test: NCI tumour cell line growth inhibition, 48 h
I'd appreciate it if you could supply TGI values for the items below.
Give just the number in µM; leave the unit off.

Ask: Reported TGI, compound COC1=C(C)C(=O)C2=C(C1=O)C(CO)N1C(C#N)C3CC4C(C1C2N1CCOC41)N3C (stereo not given) : ____
Reply: 3.4

Ask: Similarly, CCOc1ccccc1NC(=O)C(=O)C(C(=O)c1ccc2ccccc2c1)C1OC(=O)c2ccccc21 (stereo not given) ?
Reply: 22.4

====

I'd appreciate it if you could supply TGI values for the items below.
# Test system: SW-620 colon
# test: NCI tumour cell line growth inhibition, 48 h

Ask: Reported TGI, molecule `Nc1c(S(=O)(=O)O)cc(Nc2cccc(S(N)(=O)=O)c2)c2c1C(=O)c1ccccc1C2=O` : ____
Reply: > 100 µM

Ask: Similarly, `COc1ccc2c(c1)C(=O)c1c-2c(OCCN(C)C)nc2cc(OC)ccc12` ?
Reply: 1.73 µM

Ask: Similarly, `COc1ccc(-c2nn(-c3ccc(NC(=O)Nc4ccc(Cl)c(Cl)c4)cc3)cc2-c2ccncc2)cc1Cl` ?
Reply: > 100 µM

Ask: Similarly, `CC1(C)C(=O)N(O)C(C)(C)N1N=O` ?
Reply: > 10 µM

Ask: Similarly, CSC1=C(C#N)C(=O)N(c2ccc(Cl)cc2)C(=O)C1C#N (stereo unspecified) ?
Reply: > 100 µM

Ask: Similarly, CC(C)(C)OC(=O)NNC(=O)C1Cc2ccccc2OC1=O (stereo unspecified) ?
Reply: > 100 µM

Ask: Similarly, `O=[N+]([O-])c1cc2c(cc1O)[nH]c1cccc([N+](=O)[O-])c12` ?
Reply: > 100 µM

Ask: Similarly, `COc1cc(OC)cc(-n2c(N)c(-c3nc4ccccc4s3)c3ccc([N+](=O)[O-])cc3c2=O)c1` ?
Reply: > 100 µM

Ask: Similarly, `CCN=C=NCCCN(C)C` ?
Reply: > 100 µM

Ask: Similarly, `Cc1cc2c(=O)cc(-c3ccc(C(F)(F)F)cc3)oc2c(C(=O)O)c1C` ?
Reply: > 100 µM

Ask: Similarly, `CN1CCC(C(=O)NNc2ccccc2)CC1` ?
Reply: > 63.3 µM

====

# System: COLO 205 colon
# test: NCI tumour cell line growth inhibition, 48 h; in the data active = GI50 below about 0.43 µM; inactive = the rest
# output must be one of T for active, F for inactive

Ask: Field: outcome | Entry: `O=C1c2ccc3c4c(ccc(c24)C(=O)N1CCCNCc1ccccc1)C(=O)N(CCCNCc1ccccc1)C3=O`
Reply: T

Ask: Similarly, `COc1cc(C(C)(C)C)cc(OC)c1C(O)(c1c(OC)cc(C(C)(C)C)cc1OC)c1c(OC)cc(C(C)(C)C)cc1OC` ?
Reply: T

Ask: Similarly, COc1cc(/C=C2\CCCC3C2=Nc2ccccc2NC3c2cc(OC)c(OC)c(OC)c2)cc(OC)c1OC (centres undefined) ?
Reply: F

Ask: Similarly, `CCN1/C(=C/C=C/C=C/c2sc3ccccc3[n+]2CC)Sc2ccccc21` ?
Reply: T

Ask: Similarly, `COc1cc(-c2cc(-c3nc4cc(Cl)c(Cl)cc4[nH]3)[nH]n2)cc(OC)c1OC` ?
Reply: F

Ask: Similarly, `COc1cc(-c2nc3ccccc3[nH]2)ccc1OCC(=O)N=Nc1c(O)[nH]c2ccc(Cl)cc12` ?
Reply: F

Ask: Similarly, `COc1cc[c]([Sb]([Br])([CH]=C(C)C)([CH]=C(C)C)[CH]=C(C)C)cc1` ?
Reply: F

Ask: Similarly, `Cc1cc(C(=O)N[C@@H](CCC(=O)O)C(=O)O)sc1CC[C@@H]1CNc2nc(N)[nH]c(=O)c2C1` ?
Reply: T

Ask: Similarly, `O=C(C[C@@]1(O)C(=O)Nc2c(Cl)ccc(Cl)c21)c1ccc(C2CC2)cc1` ?
Reply: T

====

# Tested on: SR leukemia
# test: NCI tumour cell line growth inhibition, 48 h; in the data active = GI50 below about 0.43 µM; inactive = the rest
# output must be one of true (1) (active), false (0) (inactive)

Ask: Field: outcome | Entry: CC(N)(Cc1c[nH]c2ccccc12)C(=O)O (configuration not stated)
Reply: false (0)

Ask: Similarly, `O=S(=O)(CC#CCCCOCC#Cc1ccccc1C#CCS(=O)(=O)c1ccccc1)c1ccccc1` ?
Reply: false (0)

Ask: Similarly, `N.N.N.N.N.N#N.[Cl-].[Os+7]` ?
Reply: false (0)

Ask: Similarly, CN1C(=O)N(C)C2C1NN=c1s/c(=C\c3c[nH]c4ccccc34)c(=O)n12 (configuration not stated) ?
Reply: true (1)

Ask: Similarly, `O=C(C[C@@]1(O)C(=O)Nc2c(Cl)ccc(Cl)c21)c1ccc(C2CC2)cc1` ?
Reply: true (1)

Ask: Similarly, C[n+]1c2cc(N)ccc2cc2ccc(N)cc21 (tested in a mixture with another compound) ?
Reply: true (1)

Ask: Similarly, `CN(C)CCN1C(=O)c2cccc3c(N)ccc(c23)C1=O` ?
Reply: false (0)

The values you see were collected from PubChem BioAssay (NCI).
